Target: T1, MBP-USF2 R248A (Homo sapiens, UniProt Q15853 235-346, R248A)
T1 sequence: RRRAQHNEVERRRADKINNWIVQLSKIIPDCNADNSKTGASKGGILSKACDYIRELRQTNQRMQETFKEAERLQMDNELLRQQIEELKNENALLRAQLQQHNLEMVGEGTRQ
Test: fluorescence anisotropy; FA: 20 nM FAM-DNA, 20 mM Tris pH 8.0, 50 mM KCl, 2 mM MgCl2, 0.5% glycerol, 4 C, 3 h; EMSA: 100 nM Cy3-DNA, 10 mM Tris pH 8.0, 50 mM KCl, 1 mM DTT, 2 mM MgCl2
Details: protein: recombinant; tags: 6xHis-MBP N-terminal; chain copies: 2; label: 5'-FAM on strand 1; blunt as printed if S3 is read 3'-5' (printed with 5'-3' labels)
measuredAttribute: pKd
The value called pKd is obtained by taking minus log10 of the concentration in mol/L.

# input Can you look up the measured pKd of FAM E-box DNA (dsDNA) DNA 1: GACGGGCACGTGACGCGC DNA 2: GCGCGTCACGTGCCCGTC for me?
# output 6.34
